Ref: the supplement of paper PMC10981050

Test system: MARIMO
PROTOCOL SUMMARY: cell viability relative to vehicle control; higher = less cytotoxic;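 further: after 48 h exposure read by CellTiter-Glo luminescence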
CONDITION SUMMARY: 10 µM; SRSF2 genotype: SRSF2 wt/wt
READOUT LABEL: cell viability (%)

> print(dat)
                                   molecule   readout.label  units.text  endpoint.result
1  CC(C)C(C)C(O)C(O)C(C)C1CCC2C3COC(=O)C4CC(O)C(O)CC4(C)C3CCC12C (stereo not drawn) [Brassinolide]  cell viability           %              115
2  COc1cc2c(cc1O)CC[C@@H]1[C@@H]2CC[C@]2(C)[C@@H](O)CC[C@@H]12 [2-Methoxyestradiol]  cell viability           %             10.9
3  Cc1nc(-c2cn3c(n2)-c2ccc(-c4cnn(C(C)(C)C(N)=O)c4)cc2OCC3)n(C(C)C)n1  cell viability           %               42
4  CC(C)n1ncnc1-c1cn2c(n1)-c1ccc(O[C@@H](C)C(N)=O)cc1OCC2  cell viability           %             46.3
5  CC(C)(C)c1cc(NC(=O)Nc2ccc(-c3cn4c(n3)sc3cc(OCCN5CCOCC5)ccc34)cc2)no1 [Quizartinib (AC220)]  cell viability           %             82.9
6  O=c1c(-n2ccnn2)c[nH]n1-c1cc(N2CCOCC2)ncn1 [Molidustat(BAY 85-3934)]  cell viability           %             98.1
7  COc1cc(C2Oc3ccc(C4Oc5cc(O)cc(O)c5C(=O)C4O)cc3OC2CO)ccc1O (stereo not drawn) [Isosilybin]  cell viability           %              106
8  NC(=O)c1cnccn1 [Pyrazinamide (Pyrazinoic acid amide)]  cell viability           %              114

----------
# cell viability annotations
System: MOLM14
PROTOCOL SUMMARY: cell viability relative to vehicle control; higher = less cytotoxic
CONDITION SUMMARY: 10 µM; SRSF2 genotype: SRSF2 wt/wt
Counter-ions that a name gives are not always drawn.
READOUT LABEL: cell viability (%)

MOLECULE	UNITS TEXT	ENDPOINT RESULT
CCCCC(=O)OCC(=O)[C@H]1[C@H](C)C[C@H]2[C@@H]3C[C@H](F)C4=CC(=O)C=C[C@]4(C)[C@@]3(F)[C@@H](O)C[C@@]21C [Diflucortolone valerate]	%	96
O=C(O[C@@H]1Cc2c(O)cc(O)cc2O[C@H]1c1cc(O)c(O)c(O)c1)c1cc(O)c(O)c(O)c1 [Gallocatechin gallate]	%	67.3
NC(=O)c1cn(Cc2c(F)cccc2F)nn1 [Rufinamide (Banzel)]	%	107
COc1ccc(-c2cc(=O)c3c(O)c(OC)c(O)cc3o2)cc1OC	%	60.2
Cc1ccc(C(=O)Nc2ccc(CN3CCN(C)CC3)c(C(F)(F)F)c2)cc1C#Cc1cnc2[nH]ncc2c1 [GZD824 Dimesylate]	%	0.17
CCN(CC)Cc1ccc2cc(COC(=O)Nc3ccc(C(=O)NO)cc3)ccc2c1	%	0.55
CC(C)=CCC[C@@H](C)CC=O	%	106
COc1ccc(-c2coc3cc(O)cc(O)c3c2=O)cc1	%	91.3
O=C1c2cccc(O)c2C(=O)c2c(O)cc(CO)cc21	%	95.5
Cc1ncc(COP(=O)(O)O)c(C=O)c1O [Pyridoxal phosphate]	%	106
C[N+]12CCc3cc4c(cc3C1(O)Cc1ccc3c(c1C2)OCO3)OCO4 (centres undefined) [Hydroprotopine]	%	98.8
CC1=C(/C=C/C(C)=C/C=C/C(C)=C/C=C/C=C(C)/C=C/C=C(C)/C=C/C2=C(C)C(=O)[C@@H](O)CC2(C)C)C(C)(C)C[C@H](O)C1=O	%	101
CC1=CCC2C(C1)C2(C)C (centres undefined)	%	106
O=C(O)CCCCC(CCSCc1ccccc1)SCc1ccccc1 (centres undefined)	%	103
COc1cc2c(cc1OC)-c1cc3ccc(OC)c(OC)c3c[n+]1CC2	%	90.9
COc1cc2nccc(Oc3ccc(NC(=O)Nc4cc(C)on4)c(Cl)c3)c2cc1OC	%	10.3
CCCc1cc(=O)[nH]c(=S)[nH]1	%	96.8
CN(C)CCCn1cc(C2=C(c3c[nH]c4ccccc34)C(=O)NC2=O)c2ccccc21	%	32.5
O=C1NC(=O)C(c2ccccc2)(c2ccccc2)N1 [Phenytoin (Lepitoin)]	%	103
CC(C)CC(CC(=O)NO)C(=O)N[C@@H](Cc1ccc2ccccc2c1)C(=O)N[C@@H](C)C(=O)NCCN (some centres undefined)	%	104
O=CCc1ccccc1	%	97.2
CC(=O)O[C@H]1C[C@@]2(C)[C@@H](C[C@@H](O)[C@H]3[C@@]4(C)CC[C@@H](O)[C@@H](C)[C@@H]4CC[C@@]32C)/C1=C(\CCC=C(C)C)C(=O)O [Fusidate Sodium]	%	100
CC[C@@H](C)Nc1cc(C(=O)N[C@H]2C[C@H]3CC[C@@H](C2)N3c2ccc(C(=O)C3CC3)cn2)c(C)cc1C(N)=O	%	2.43
COCCOc1nc(-c2ccc(Cl)c(Cl)c2)n(-c2ccc(NC(=O)CCl)cc2)n1	%	0.53
COCCOc1ccc2c(c1)ncn2-c1ccc2cccc(N3CCC(N)CC3)c2n1	%	-0.03
O=C(O)Cc1ccccc1Nc1c(Cl)cccc1Cl [Diclofenac Potassium]	%	100
Cc1cc(O)c2c(c1)C(=O)c1cccc(O)c1C2=O	%	106
Cc1ccccc1C(=O)Nc1ccc(C(=O)N2CCCC(N(C)C)c3ccccc32)cc1 (centres undefined)	%	102
O=C(c1cccc(Br)c1)N1CCC(N2CCCC2)CC1	%	105
CC(=O)[C@H]1CC[C@H]2[C@@H]3CC=C4C[C@@H](O)CC[C@]4(C)[C@H]3CC[C@]12C	%	105
CN[C@@H](C)C(=O)N[C@H]1CN(C(=O)CC(C)C)CC[C@H]2CC[C@@H](C(=O)NC(c3ccccc3)c3ccccc3)N2C1=O	%	0.76
CNS(=O)(=O)CCc1ccc2[nH]cc(C3CCN(C)CC3)c2c1 [Naratriptan HCl]	%	104
CCCOC(=O)c1cc(O)c(O)c(O)c1 [Propyl gallate]	%	106
Cn1ccnc1S	%	97.6

----------
Test system: OCI-AML2
PROTOCOL SUMMARY: cell viability relative to vehicle control; higher = less cytotoxic
CONDITION SUMMARY: 10 µM; SRSF2 genotype: wt/wt
Where a name gives a salt, the structure may show the parent alone.
READOUT LABEL: cell viability (%)

> print(dat)
                                   compound  units.text  endpoint.result
1  Clc1ccc(COC(Cn2ccnc2)c2ccc(Cl)cc2Cl)c(Cl)c1 (centres undefined) [Miconazole (Monistat)]           %             54.4
2  CCCCNc1ncc(C(=O)NCc2ccc(-n3ccnc3)cc2)c(NC2CCC(O)CC2)n1 (centres undefined)           %             52.1
3  C=C(C(=O)O)C1CCC(C)C2CCC(C)=CC12 (centres undefined) [Artemisic acid]           %              103
4  CN(CCOc1ccc(NS(C)(=O)=O)cc1)CCc1ccc(NS(C)(=O)=O)cc1 [Dofetilide (Tikosyn)]           %              107
5     O=C(NO)c1ccc(CC(=O)N(CCO)c2ccccc2)cc1           %             81.6
6  c1ccc(-c2nn3c(c2-c2ccnc4cc(OCCN5CCOCC5)ccc24)CCC3)nc1           %              117
7  c1ccc2c(Oc3nc(Nc4ccc(N5CCOCC5)cc4)c4ncn(C5CCCCC5)c4n3)cccc2c1 [Purmorphamine]           %               64
8               COc1cc(C=O)ccc1O [Vanillin]           %             97.5
9  O=c1[nH]ccc2c(S(=O)(=O)N3CCCNCC3)cccc12 [Hydroxyfasudil (HA-1100)HCl]           %             90.5

----------
# cell viability annotations
Tested on: MOLM14
PROTOCOL SUMMARY: cell viability relative to vehicle control; higher = less cytotoxic
CONDITION SUMMARY: 10 µM; SRSF2 genotype: SRSF2 wt/wt
Counter-ions that a name gives are not always drawn.
READOUT LABEL: cell viability (%)

COMPOUND	ENDPOINT RESULT
OCCN(CCO)c1nc(N2CCCCC2)c2nc(N(CCO)CCO)nc(N3CCCCC3)c2n1 [Dipyridamole (Persantine)]	107
NNC(=O)c1ccncc1	106
O=C[C@H](O)[C@H]1OC(=O)[C@@H](O)[C@H]1O	88.3
C/C(O)=C(\C#N)C(=O)Nc1ccc(C(F)(F)F)cc1 [Teriflunomide]	93.9
CC(=O)N1CCC(Nc2cc(C(=O)NC[C@H](O)CN3CCc4ccccc4C3)ncn2)CC1	94.5
CC(C)[C@H](O)C(=O)N[C@@H](C)C(=O)N[C@@H]1C(=O)N(C)CCc2ccccc21	105
C#Cc1cccc(Nc2ncnc3cc(OCCOC)c(OCCO)cc23)c1	29.9
C=C(C)[C@@H]1CC[C@]2(C(=O)O)CC[C@]3(C)[C@H](CC[C@@H]4[C@@]5(C)CC[C@H](O[C@@H]6OC[C@H](O)[C@H](O)[C@H]6O[C@@H]6O[C@@H](C)[C@H](O)[C@@H](O)[C@H]6O)[C@@](C)(CO)[C@@H]5CC[C@]43C)[C@@H]12 [Pulchinenoside A]	96.6
Cc1cc2c(F)c(Oc3ncnn4cc(OC[C@@H](C)OC(=O)[C@H](C)N)c(C)c34)ccc2[nH]1	87.4
Nc1[nH]cnc2ncnc1-2 [Adenine hydrochloride]	108
Cc1c(C(=O)Nc2ccc(Oc3ccnc4[nH]cc(-c5ccccc5)c34)c(F)c2)c(=O)n(-c2ccc(F)cc2)n1C	13.1
O=C(CCc1ccc(O)cc1)c1c(O)cc(O[C@@H]2O[C@H](CO)[C@@H](O)[C@H](O)[C@H]2O)cc1O	98.9
CCC[C@@H]1C[C@@H](C(=O)N[C@@H]([C@H]2O[C@H](SC)[C@H](O)[C@@H](O)[C@H]2O)[C@H](C)Cl)N(C)C1 [Clindamycin]	99.8
CCCCCCCCCCCC1=C(O)C(=O)C=C(O)C1=O	91.9
CC(NCCc1ccc(O)cc1)C(O)c1ccc(O)cc1 (stereo unspecified) [Ritodrine hydrochloride (Yutopar)]	99.8
N[C@@]1(C(=O)O)CS(=O)(=O)[C@H]2[C@H](C(=O)O)[C@H]21	113
